assay: amyloid nucleation score (Sup35N fusion, yeast selection) (log enrichment); library NNK1; higher = more nucleation; inactive = no reads after selection;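 note: zero at mode of non-aggregating sequences after 7 days selection at 30°C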
I would appreciate it if you labelled entries Condition met when amyloid nucleation score is -0.009 or higher, otherwise Condition not met.

Quick check, amyloid nucleation score >= -0.009? "YLRLKKMSVGVWGVIDRCLV" Condition met

Check the entry "RINMGNYSLKWNMFTKVSLK" : does amyloid nucleation score equal or exceed -0.009? Condition not met

Continuing:
Dear colleague, could you confirm whether "FRYGYLFKLSNVWIDDMLRR" has amyloid nucleation score at or above -0.009? Condition met

Could you verify whether the entry "WQSCWIWTKCRTVDVRRKKD" shows amyloid nucleation score of no less than -0.009? Condition not met

Is amyloid nucleation score at least -0.009? Consider "SVIAVSLETQVIAWVRYYPK" Condition not met

Please tell me: is the sequence "TASLLLTLLFGLPEGLLW" at or over -0.009 in terms of amyloid nucleation score? Condition met

// inclusive: amyloid nucleation score at least -0.009? input: "FGLVAGRR" Condition not met

----------
test: amyloid nucleation score (Sup35N fusion, yeast selection) (log enrichment); library NNK1; higher = more nucleation; inactive = no reads after selection
READOUT KIND: amyloid nucleation score
Answers are plain numbers.

Field: example entries. Status: answers known.
Given "YQQSCWVLYGTNLRYSNQSW" , state its recorded amyloid nucleation score. 1.74

Can you share its amyloid nucleation score? I mean this substance: "ATKSRLVNILTGKDEALTGL" -0.684

Each substance below has a reported value. Please supply its amyloid nucleation score.
1. GNFCFPMAYTGLVFGEMLSF
2. FQGTIR
3. REDAYR
4. ILVPYLIAFFMEYRSRLCRF

0.1
0.193
-0.429
0.254

// batch mode: one amyloid nucleation score value per listed entry
1. IIFHICRTGEDLTKSGCLSW
2. NYYLVCCCKREQRLCTVGIT
3. TYCNMVITRQRNA
4. STSMDPLYYDYDRLYKIHDK

1: -0.494; 2: 6.83; 3: 0.685; 4: 0.484

Respectfully, I request amyloid nucleation score for each entry included below.
1. AIRSFRARIGN
2. EKRFFVSLVNVYLDL
3. NYVYSSVVGLLIW
4. VTILWTKSYMESDISFYIMW
5. GSCVCECGWIFTARGVRVFK
6. CVTLCSNPWDQKRFICIYRH
7. NLTANVLKVMSRHCNGFWIF

1: 0.177; 2: 4.57; 3: -0.077; 4: -1.03; 5: -0.346; 6: -0.021; 7: 0.29

----------
assay: amyloid nucleation score (Sup35N fusion, yeast selection) (log enrichment); library NNK3; higher = more nucleation; inactive = no reads after selection
READOUT KIND: amyloid nucleation score

Any idea what its amyloid nucleation score is? The substance is "WSMSSVTYNSVCSCGSWCE" 1.87

I would be grateful if you could share the reported amyloid nucleation score for "TKRWFGLCYESVKLRVRSFA" . inactive

Fill blank: measured amyloid nucleation score of the substance "CNFDKTLRSHDDQLAVGITV" is ____. inactive

Requested read-out: amyloid nucleation score. Entry: "VCEGMKMAALRYREERC" inactive

For each listed entry, give its amyloid nucleation score.
1. FLNCSSQKNATPHILFNGGM
2. SYYLITDS
3. LAYWPSNGCVP
4. KSLTDHVNRSFLMVGVWMVK

["inactive", "inactive", "inactive", "inactive"]

Record amyloid nucleation score per entry; entries follow.
1. FDFESRKLVVGICGCSQAGL
2. QSASHRP
3. SKTIYWFPPYPYVQFGCHRR

inactive
inactive
inactive
